Method: Comparison of absorption in rats after intragastric administration of free base and salt (plasma pharmacokinetics)
Assay type: in vivo, SD rats
Condition Details: SD rats, 20 μmol/kg, intragastric administration, plasma; listed as monosulfate
Experimental: The blood sample was centrifuged at 8000 RPM for 5 minutes, followed by the isolation of the upper plasma. […] 200 μL of the supernatant was taken and centrifuged again for 10 minutes. 50 μL of the supernatant was injected in a 96-well plate. The plasma drug concentration was determined by LC/MS/MS, and the corresponding pharmacokinetic parameters were calculated.
Measured Endpoint: Cmax (µM)
Could you give me the number in µM? Just the number is fine.

# Cmax (molecule: C=C(F)C(=O)Nc1cc2c(Nc3ccc(F)c(Cl)c3)ncnc2cc1OCCCN1CCOCC1.O=S(=O)(O)O ) is 1.66
